// provenance: patent US20100240656A1

# Test system: K-562
# procedure.text: Cell proliferation by MTT method, K-562
# Format: cell-based
# test.context: Homo sapiens, K562, 72 h; K 562, incubation 3 days

compound.smiles | target.entity | measurement.units | EC50
NCCCCCn1c(Sc2cc3c(cc2I)OCO3)nc(C(N)=O)c1N | K-562 | µM | 12.2

###

# System: HCT-116
# procedure.text: Cell growth inhibition by AlamarBlue method, HCT-116
# Type: cell-based
# test.context: Homo sapiens; HCT-116, 72 hours; read-out: Cell growth inhibition values (EC50) obtained with AlamarBlue method

compound.smiles | measurement.units | EC50
NC(=O)c1nc(Sc2cc3c(cc2I)OCO3)n(CCCN2CCOCC2)c1N | µM | 1
CCCCn1c(Sc2nc3cccc(Cl)c3s2)nc(C(N)=O)c1N | µM | 33
CCOc1cc2c(cc1Sc1nc(C(N)=O)c(N)n1C)OCO2 | µM | 91.5
Cn1c(Sc2cc3c(cc2Br)OCO3)nc(C(N)=O)c1N | µM | 78
NCCCCCn1c(Sc2cc3c(cc2I)OCO3)nc(C(N)=O)c1N | µM | 23.7
Cn1c(Sc2cc3c(cc2Br)OCC3)nc(C(N)=O)c1N | µM | 70
CSc1cc2c(cc1Sc1nc(C(N)=O)c(N)n1C)CCO2 | µM | 85
Cc1c(NS(C)(=O)=O)c(C(N)=O)nn1Cc1cc2c(cc1Br)OCO2 | µM | 83
Cn1c(Sc2cc3c(cc2S(C)(=O)=O)OCO3)nc(C(N)=O)c1N | µM | 26.1
